TARGET_OR_SYSTEM: Tyrosyl-tRNA synthetase, putative (Trypanosoma cruzi (strain CL Brener)) (UniProt Q4DSP6)
Sequence (whole entry): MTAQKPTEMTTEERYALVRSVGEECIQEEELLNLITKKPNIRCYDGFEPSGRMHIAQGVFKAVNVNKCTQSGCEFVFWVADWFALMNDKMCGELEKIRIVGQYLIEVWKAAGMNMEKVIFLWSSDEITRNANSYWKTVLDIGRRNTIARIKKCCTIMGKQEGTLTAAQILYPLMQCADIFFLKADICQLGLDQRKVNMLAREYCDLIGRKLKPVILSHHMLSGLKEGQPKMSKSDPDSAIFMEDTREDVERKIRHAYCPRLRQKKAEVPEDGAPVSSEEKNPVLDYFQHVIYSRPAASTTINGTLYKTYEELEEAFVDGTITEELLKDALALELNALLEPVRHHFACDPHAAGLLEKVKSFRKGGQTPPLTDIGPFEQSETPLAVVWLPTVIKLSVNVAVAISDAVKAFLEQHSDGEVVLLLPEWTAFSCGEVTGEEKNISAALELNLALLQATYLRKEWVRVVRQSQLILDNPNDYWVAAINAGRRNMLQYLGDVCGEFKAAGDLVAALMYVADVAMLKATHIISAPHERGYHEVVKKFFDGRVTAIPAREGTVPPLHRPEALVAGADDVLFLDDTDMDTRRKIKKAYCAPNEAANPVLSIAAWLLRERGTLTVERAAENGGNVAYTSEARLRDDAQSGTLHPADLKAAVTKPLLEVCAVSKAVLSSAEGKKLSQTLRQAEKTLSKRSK
ASSAY_DETAILS: Trypanosoma cruzi tyrosyl tRNA synthetase (TcYRS) SOP
Format: functional
Parameters: scale not given: direction of the effect not stated beside the values
CONDITION: 30 µM
RESULT_TYPE: Percent Effect (%)
Give the quantity in %, number only.

# MOLECULE, U, Percent Effect
records = [
    ("Cc1ncc2c(n1)CCCC2NC(=O)c1ccncc1 (stereo unspecified)", "%", -3.7),
    ("Cc1nc(NCc2ccc(C)o2)cc(C(=O)N2CCOCC2)n1", "%", 8.64),
    ("O=S(=O)(CCN1CCOC(Cn2cncn2)C1)c1ccccc1 (stereo unspecified)", "%", 3.7),
    ("CCn1cc(CN2CCCN(C(=O)CCc3ccncc3)CC2)cn1", "%", 14.6),
    ("CC(=O)Nc1nc(CN2CCOC(Cn3cc(C)cn3)C2)cs1 (stereo unspecified)", "%", 21.2),
]

Next molecule, Percent Effect to be filled in.
Form field: Percent Effect recorded for O=C(c1ccsc1)N1CCCC(c2cc(C(F)(F)F)[nH]n2)C1 (stereo unspecified) with Tyrosyl-tRNA synthetase, putative (Trypanosoma cruzi (strain CL Brener)) (UniProt Q4DSP6) (enter value)
3.7

###

Measured Percent Effect, listed per entry for reference.
TARGET_OR_SYSTEM: Sialic acid-binding Ig-like lectin 9 (Homo sapiens)
ASSAY_DETAILS: Hs-Siglec9 ALPHAscreen SOP 20170721
Design: scale not given: direction of the effect not stated beside the values
CONDITION: 10 µM
Give the quantity in %, number only.

# COMPOUND, U, Percent Effect
rows = [
    ("Cc1cnn(CC2CN(Cc3nccn3C)CCO2)c1 (stereo not given)", "%", 2.01),
    ("Cc1nc(C2CCCN(C(=O)c3cccc(S(C)(=O)=O)c3)C2)no1 (stereo not given)", "%", 4.04),
]

Need Percent Effect, item CCS(=O)(=O)N1CCC2(CC(=O)N(c3cccc(C)c3)C2)C1 (stereo not given)
0.841

Need Percent Effect, item Cn1cc(CC2CCN(C(=O)NCCc3cccc(O)c3)C2)cn1 (stereo not given)
1.28

Need Percent Effect, item CC(C)COCC1CN(Cc2ccc3c(c2)OCO3)Cc2ncn(C)c21 (stereo not given)
2.92
